Test system: A498 renal
assay-remarks: NCI tumour cell line growth inhibition, 48 h
TGI by entry:

{"columns": ["compound", "tgt", "TGI"],
 "data": [
  ["COc1ccc2c(c1)nc(N)c1c3cc(OC)c(OC)cc3cn21", "A498 renal", "0.592 µM"],
  ["O=S(=O)(O)c1ccc2c(N=Nc3ccccc3)c(O)c(S(=O)(=O)O)cc2c1", "A498 renal", "> 100 µM"],
  ["CN1c2ccccc2C(=O)NC12CCN(Cc1ccccc1)CC2", "A498 renal", "> 100 µM"],
  ["C=CC[C@H]1C[C@@]2(C)OC[C@H](C(C)C)N2C1=O", "A498 renal", "> 100 µM"],
  ["COc1ccc(C2c3cc4c(cc3OC(NNC(N)=O)C2C)OCO4)cc1 (stereo unspecified)", "A498 renal", "8.59 µM"],
  ["C/C=C1\\CN2CCC34c5ccccc5N(C)C35OCC4(C(=O)OC)C1CC25 (stereo unspecified)", "A498 renal", "> 100 µM"]
]}

---

System: OVCAR-5 ovarian
assay-remarks: NCI tumour cell line growth inhibition, 48 h; in the data active = GI50 below about 0.43 µM; inactive = the rest
Possible outcomes: 1 (yes) = active, 0 (no) = inactive

{"columns": ["compound", "tgt", "discrete-label"],
 "data": [
  ["Cn1ccc2c(NCCN)c3c(c(NCCN)c21)C(=O)c1ccccc1C3=O", "OVCAR-5 ovarian", "0 (no)"],
  ["COc1ccc2c(c1)nc(N)c1c3cc(OC)c(OC)cc3cn21", "OVCAR-5 ovarian", "1 (yes)"],
  ["CC(=O)[CH-]C(=O)c1ccccc1.CC(=O)[CH-]C(=O)c1ccccc1.CC(=O)[CH-]C(=O)c1ccccc1.[Tl+3]", "OVCAR-5 ovarian", "0 (no)"],
  ["C=C1C[C@@H]2C/C=C/C(=O)C/C(C)=C\\C=C\\C(=O)O[C@H](C=O)C/C(C)=C/[C@H](C1)O2", "OVCAR-5 ovarian", "0 (no)"],
  ["O=C(NC1CC1)c1ccc(-c2nc3ccc4[nH]ncc4c3c3c2CCCC3)cc1", "OVCAR-5 ovarian", "0 (no)"],
  ["COc1ccc(CNc2nc3cc(N)cc(N)c3nc2-c2ccccc2)cc1OC", "OVCAR-5 ovarian", "0 (no)"],
  ["O=C1/C(=C/c2ccc(O)c([N+](=O)[O-])c2)CCC/C1=C\\c1ccc(O)c([N+](=O)[O-])c1", "OVCAR-5 ovarian", "0 (no)"],
  ["O=C(c1cc(F)c(Cl)cc1Cl)N1N=C(c2ccccc2)CC1(O)c1ccccc1 (centres undefined)", "OVCAR-5 ovarian", "0 (no)"],
  ["CC(=O)OCC1OC(OC2CC3C(C)(C)C(OC(C)=O)CC[C@]3(C)C3CCC45CC4(CC[C@H]5C(C)CC(O)[C@@H](O)C(C)(C)O)[C@]23C)C(O)C(O)C1O (some centres undefined)", "OVCAR-5 ovarian", "0 (no)"]
]}

---

System: HOP-92 NSCLC
assay-remarks: NCI tumour cell line growth inhibition, 48 h; in the data active = GI50 below about 0.43 µM; inactive = the rest
Possible outcomes: label 1 (active), label 0 (inactive)

{"columns": ["compound", "discrete-label"],
 "data": [
  ["COC(=O)COc1ccc(/C=C2\\N=C(c3ccccc3)N(c3cc(C(F)(F)F)ccc3Cl)C2=O)cc1", "label 0"],
  ["O=C(NC1CC1)c1ccc(-c2nc3ccc4[nH]ncc4c3c3c2CCCC3)cc1", "label 0"],
  ["COc1cc(NC(=O)c2cc(OC)c3ccn(C)c3c2)cc2c1C[C@]1(C)CC[C@@H](O)C(C)(C)[C@H]1O2", "label 0"],
  ["NCCCC(=O)Nc1ccncc1", "label 0"],
  ["CCOC(=O)Cc1csc(/N=C2\\NC(=O)/C(=C3\\C(=O)N(C)c4ccccc43)S2)n1", "label 0"],
  ["N#CC1=C(N)N=C(N2CCCCC2)C(C#N)C12Nc1ccccc1S2 (centres undefined)", "label 0"],
  ["CC(=O)OCC1OC(OC2CC3C(C)(C)C(OC(C)=O)CC[C@]3(C)C3CCC45CC4(CC[C@H]5C(C)CC(O)[C@@H](O)C(C)(C)O)[C@]23C)C(O)C(O)C1O (some centres undefined)", "label 0"],
  ["c1ccc2[nH]c(SSc3nc4ncncc4[nH]3)nc2c1", "label 1"],
  ["COc1ccc2c(c1)nc(N)c1c3cc(OC)c(OC)cc3cn21", "label 0"],
  ["c1ccc(C(=NNc2nc3ccccc3o2)c2ccccn2)nc1", "label 1"],
  ["N#CC1=C(N)NC(=S)NC12Nc1ccccc1O2 (centres undefined)", "label 0"],
  ["N=C1c2nc3n(c2C(=O)c2nc4n(c21)CCCC4)CCCC3", "label 0"],
  ["O=C(Nc1ccc(-n2cc(-c3ccncc3)c(-c3ccc(Cl)c(O)c3)n2)cc1)Nc1cc(C(F)(F)F)cc(C(F)(F)F)c1", "label 0"],
  ["COc1c(C)c2c(c(O)c1C/C=C(\\C)CCC(=O)OCCN1CCOCC1)C(=O)OC2", "label 0"]
]}

---

Tested on: SF-539 CNS
assay-remarks: NCI tumour cell line growth inhibition, 48 h
readout-kind: TGI

{"columns": ["molecule", "tgt", "data-value"],
 "data": [
  ["C1CNCCNCCNCCN1", "SF-539 CNS", "> 100 µM"],
  ["C[C@@H]1O[C@@H](O[C@@H]2[C@@H](O)[C@H](OCCc3ccc(O)c(O)c3)O[C@H](COC(=O)/C=C/c3ccc(O)c(O)c3)[C@H]2O)[C@H](O)[C@H](O)[C@H]1O", "SF-539 CNS", "> 100 µM"],
  ["O=C(O)CS(=O)c1ccc2c3c(cccc13)C(=O)c1ccccc1-2 (stereo unspecified)", "SF-539 CNS", "> 100 µM"],
  ["CCOC(=O)c1[nH]cnc1/N=N/N(C)N", "SF-539 CNS", "> 100 µM"],
  ["CN(C)Cc1cc(C(C)(C)C)cc(CNC2CCCCC2)c1O", "SF-539 CNS", "63.5 µM"],
  ["COc1ccc(CNc2nc3cc(N)cc(N)c3nc2-c2ccccc2)cc1OC", "SF-539 CNS", "41.1 µM"],
  ["COc1ccc(-c2cc(C3CC3)nc(SCC(=O)O)c2C#N)cc1", "SF-539 CNS", "> 100 µM"],
  ["CCOP(=O)(CC1CC(O)(CNc2cc(Cl)nc(N)n2)C1)OCC (stereo unspecified)", "SF-539 CNS", "> 100 µM"],
  ["CN(C)NC1=NS(=O)(=O)c2cc3c(cc2S1)N(N(C)C)C(=O)c1cc2c(cc1N(N(C)C)C3=O)SC(NN(C)C)=NS2(=O)=O", "SF-539 CNS", "> 10 µM"],
  ["CC(=O)OC(CC(C)C)P1(=O)N(CC(C)(C)C)[C@@H]2CCCC[C@H]2N1CC(C)(C)C (stereo partly specified)", "SF-539 CNS", "22.3 µM"],
  ["CCOC(=O)CCCn1c(SC)nc2cc(-c3ccco3)[nH]c2c1=O", "SF-539 CNS", "53.2 µM"]
]}

---

Tested on: HCT-116 colon
assay-remarks: NCI tumour cell line growth inhibition, 48 h
readout-kind: TGI (µM)

{"columns": ["molecule", "readout-kind", "modifier-sign", "data-value"],
 "data": [
  ["COC(=O)c1ccc(CCC2=CC(=O)C(Br)=CC2=O)cc1", "TGI", "=", 30.3],
  ["COC(=O)c1c(C)ccc2c(O)c3c(cc12)C(=O)c1c2c(cc(O)c1C3=O)C1(C)OC(C)(O2)C(O)C(N(C)C)C1O (stereo not given)", "TGI", "=", 1.84],
  ["CN1[C@@H]2CCCC[C@H]2N(C)P1(=O)C(O)/C=C/c1ccccc1 (stereo not given in full)", "TGI", ">", 100],
  ["Cc1c(C)c2c(c(N)c1C#N)C(=O)N(OS(=O)(=O)c1ccccc1)C2=O", "TGI", "=", 68.1],
  ["COc1ccc2c([nH]c3cc(O)c(C)cc32)c1C=O", "TGI", ">", 25],
  ["O=c1[nH]nc(Cc2ccccc2)n1/N=C/c1ccc([N+](=O)[O-])o1", "TGI", "=", 6.13],
  ["O=c1[nH]nc(-c2ccc([N+](=O)[O-])cc2)n1/N=C/c1ccc([N+](=O)[O-])cc1", "TGI", ">", 100],
  ["O=C1C(Cl)=C(Oc2ccc([N+](=O)[O-])cc2)C(=O)c2c(O)ccc(O)c21", "TGI", ">", 100],
  ["Cc1ncc([N+](=O)[O-])n1CCNS(=O)(=O)CCCn1ccnc1[N+](=O)[O-]", "TGI", ">", 100],
  ["NCCCC(=O)Nc1ccncc1", "TGI", ">", 100]
]}
